MEASURED TARGET: HLA class I molecule A02.01
ASSAY COMMENT: competition with radiolabeled reference peptide on purified MHC I
SETTINGS: remark: other sources report otherwise
MEASURE: IC50 (nM)
Output spec: scalar in nM, unitless text.

Please report the measured IC50 for FQNGKMALSA
6160

Let me know recorded IC50 for ALQPLQPHA , thanks.
604

Please indicate IC50 recorded for LSLMPAHWSI
164

Identify measured IC50 associated with LIVSRTLLL
174

Identify IC50 associated with the binder FELLSTPPL
225

Answer with the recorded IC50 for the binder listed here: SLMPAHWSI
48

Tell us which IC50 value is on record for YLGNHMNIA
117

Output measured IC50 for this item: SQIMSLWGL
62
